Exercise: for every item that follows, state its recorded 1/EC50.
measurement target: cynomolgus CD73 (form not stated) (cynomolgus)
procedure summary: Binding, Cyno; assay not described
State the answer as a number, implicitly in nM⁻¹.

## Task Param item = CD730047 antibody (antibody, IgG1, V domains shown, IgG1) VH: EVQLVQSGGGVVQPGRSLRLSCAASGFTFSSYGMHWVRQAPGKGLEWVAVISYDGSIKYYADSVKGRFAISRDNAKNTLYLQMNSLRREDTAMYYCASGLTGVAGALGVWGRGTLVTVSS VL: QSVLTQPPSASGAPGQRVTISCSGSSSNIGSNTVNWYQRLPGAAPQLLIYNNDQRPSGIPDRFSGSKSGTSGSLVISGLQSEDEADYYCAAWDDSLSGNVFGTGTKVTVL ; retrieve measured 1/EC50.
## Result 0

## Task Name the reported 1/EC50 value associated with the binder CD730042 antibody (antibody, IgG1, V domains shown, IgG1) VH: GVQLVQSGGGLVQPGGSLRLSCAASGFTFSSYGMHWVRQAPGKGLEWVAVISYDGSIKYYADSVKGRFTISRDDSKNALYLQMNSLRAEDTAVYYCSTLSGSYGYFDYWGRGTLVTVSS VL: QSVLTQPASVSGSPGQSITISCAGTSSDVGGYNYVSWYQQHPGKAPKLMIYEGSKRPSGVSNRFSGSKSGNTASLTISGLQAEDEADYYCSSYTTRSTRVFGGGTKLTVL
## Result 0.0014

## Task For CD730008 antibody (antibody, IgG1, V domains shown) VH: EVQLLETGGGLVQPGGSLRLSCAASGFTFSSYAMSWVRQAPGKGLEWVSAISGSGGSTYYADSVKGRFTISRDNSKNTLYLQMNSLRAEDTAVYYCARGNYGNLDHWGKGTLVTVSS VL: QSVLTQPPSVSVSPGQTASITCSGDKVGDKYASWYQQKPGQSPVLVIYQDRKRPSGIPERFSGSNSGNTATLTISGTQPMDEADYYCQAWDSSHWVFGGGTKLTVL , what is its reported 1/EC50?
## Result 0.0011

## Task Which 1/EC50 reading was recorded for the binder CD730021 antibody (antibody, IgG1, V domains shown, IgG1) VH: QVQLQESGPGLVRPSETLSLTCTVSGGSISSSSYYWAWVRQSPGKGLEWIGNIYYRGSTYYNPSLKSRVTMSVDMSKHQFSLKLSSLNAADTAVYYCASLYSGTYVFDYWGRGTLVTVSS VL: QSVLTQPPSASGTPGQRVTISCSGSRPNIGGNTVNWYQQLPGAAPKLLIYSNSQRPSGVPDRFSGSKYGTSASLAISGLQSDDEADYYCGTWDDSLNGPVFGRGTKLTVL ?
## Result 0.0012
